target: human orexin-2 (hOX2) receptor (Homo sapiens); construct: expressed in transfected cells; experiment: Intracellular Ca2+ mobilization assay (FLIPR), CHO(dHFr-) cells expressing hOX2, orexin-A as agonist; type: cell-based; details: antagonist Kb=IC50/(1+[A]/EC50); orexin-A at EC80; CHO(dHFr-)-OX2R cells; antagonist applied 25 min before agonist
Label scheme for Kb: lower than 0.02 µM is rule not met, 0.02 µM and above is rule met.

Reported Kb at or above 0.02 µM? `CSc1ccccc1C(=O)N1CC[C@@H](Nc2nc3ccc(Cl)cc3o2)C1` rule met

Reported Kb at or above 0.02 µM? `COc1cccc(OC)c1C(=O)N1CC[C@@H](Nc2cnc3cc(F)ccc3n2)C1` rule met

Reported Kb at or above 0.02 µM? `O=C(c1ccccc1OC(F)(F)C(F)F)N1CC[C@@H](Nc2nc3ccc(F)cc3s2)C1` rule not met

Reported Kb at or above 0.02 µM? `COc1cccc(OC)c1C(=O)N1CC[C@@H](Nc2nc3c(C)cccc3o2)C1` rule not met

Reported Kb at or above 0.02 µM? `Cc1ccc(C(F)(F)F)c(C(=O)N2CC[C@@H](Nc3nc4ccc(F)cc4s3)C2)c1` rule not met

====

target: human orexin-2 (hOX2) receptor (Homo sapiens); construct: expressed in transfected cells; test: Intracellular Ca2+ mobilization assay (FLIPR), CHO(dHFr-) cells expressing hOX2, orexin-A as agonist; format: cell-based; conditions: antagonist Kb=IC50/(1+[A]/EC50); orexin-A at EC80; CHO(dHFr-)-OX2R cells; antagonist applied 25 min before agonist
Label scheme for Kb: lower than 0.02 µM is not met, 0.02 µM and above is met.

Reported Kb at or above 0.02 µM? `O=C(c1c(F)cccc1C(F)(F)F)N1CC[C@@H](Nc2nc3ccc(Cl)cc3o2)C1` met

Reported Kb at or above 0.02 µM? `O=C(c1c(F)cccc1N1CCCC1)N1CC[C@@H](Nc2nc3ccc(Cl)cc3o2)C1` not met

Reported Kb at or above 0.02 µM? `O=C(c1ccccc1-c1ccco1)N1CC[C@@H](Nc2nc3ccc(Cl)cc3o2)C1` not met

Reported Kb at or above 0.02 µM? `COc1cccc(OC)c1C(=O)N1CC[C@@H](Nc2cnc3cc(Cl)ccc3n2)C1` met

Reported Kb at or above 0.02 µM? `Cc1cccc(Cl)c1C(=O)N1CC[C@@H](Nc2nc3ccc(Cl)cc3o2)C1` met

====

Target: human orexin-2 (hOX2) receptor (Homo sapiens)
Construct: expressed in transfected cells
Sequence (O43614 1-444): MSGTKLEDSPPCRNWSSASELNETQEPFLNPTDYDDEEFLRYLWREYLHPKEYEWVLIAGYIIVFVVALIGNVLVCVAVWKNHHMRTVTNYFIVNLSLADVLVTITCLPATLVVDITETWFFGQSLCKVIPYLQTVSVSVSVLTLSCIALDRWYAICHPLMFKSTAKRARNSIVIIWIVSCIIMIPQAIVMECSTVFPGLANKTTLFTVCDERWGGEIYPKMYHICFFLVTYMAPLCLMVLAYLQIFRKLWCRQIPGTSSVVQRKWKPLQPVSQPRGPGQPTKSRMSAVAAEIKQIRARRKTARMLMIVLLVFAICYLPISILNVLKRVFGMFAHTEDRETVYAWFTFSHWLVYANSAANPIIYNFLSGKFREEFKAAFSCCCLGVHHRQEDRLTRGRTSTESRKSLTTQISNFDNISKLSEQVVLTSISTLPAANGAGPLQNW
Assay: Intracellular Ca2+ mobilization assay (FLIPR), CHO(dHFr-) cells expressing hOX2, orexin-A as agonist
Assay type: cell-based
Conditions: antagonist Kb=IC50/(1+[A]/EC50); orexin-A at EC80; CHO(dHFr-)-OX2R cells; antagonist applied 25 min before agonist
Measured quantity: Kb (µM)
Give the number; µM is assumed, so skip it.

For record `COc1cccc(OC)c1C(=O)N1CC[C@@H](Nc2nc3cccc(F)c3s2)C1` the listed Kb is 0.01

For record `Cc1ccc(Cl)c(C(=O)N2CC[C@@H](Nc3nc4ccc(F)cc4s3)C2)c1` the listed Kb is 0.039

For record `COc1cccc(OC)c1C(=O)N1CC[C@@H](Nc2nc3c(F)cccc3s2)C1` the listed Kb is 0.0091

For record `Cc1onc(-c2ccccc2)c1C(=O)N1CC[C@@H](Nc2nc3cc(F)cc(F)c3s2)C1` the listed Kb is 0.0228

For record `Cc1ccc(C(F)(F)F)c(C(=O)N2CC[C@@H](Nc3cnc4cc(C(C)(C)C)ccc4n3)C2)c1` the listed Kb is 0.0052

For record `CCOc1cccc(OCC)c1C(=O)N1CC[C@@H](Nc2nc3ccc(Cl)cc3o2)C1` the listed Kb is 0.0012

For record `O=C(c1cnoc1-c1ccccc1)N1CC[C@@H](Nc2nc3ccc(Cl)cc3o2)C1` the listed Kb is 0.0054
